- assay system: human alpha-synuclein monomer (human, UniProt P37840 1-140)
- assay procedure: direct ELISA on coated antigen;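 note: plates coated with recombinant human, mouse or rat alpha-synuclein, purified antibody titrated 10 µg/mL down to 0.6 ng/mL for 1 h, bound antibody detected by anti-rat HRP with TMB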
recorded metric: EC50 (nM)
One number for each entry, in nM.

# EC50 (binder: 18B4 (antibody, IgG2b, V domains shown, also called clone 18B4) VH: EVQLVESGGGLVQPGRSLKLSCAASGFTFSSFAMAWVRQAPKKGLEWVATITSGGSKTYYPDSVKGRFTISRDNAKSTLYLQMDSLRSEDTATYYCAKGYFDYWGQGVMVTVSS VL: DVVLTQTPPTLSATIGQSVSISCRSSQSLLHSNGNTYLHWLLQRPGQSPQLLIYLVSRLESGVPNRFSGSGSGTDFTLKISGVEAEDLGVYYCVQGTHAPLTFGSGTKLEIK ) is 0.05

Reference for the values: patent US20230074436A1
